Biological target: T1, monkey NPR1 extracellular domain expressed with a C-terminal myc-myc-hexahistidine (mfNPR1-MMH) (monkey, UniProt P16066 33-473 (human entry))
T1 construct: also called monomeric monkey NPR1
T1 chain: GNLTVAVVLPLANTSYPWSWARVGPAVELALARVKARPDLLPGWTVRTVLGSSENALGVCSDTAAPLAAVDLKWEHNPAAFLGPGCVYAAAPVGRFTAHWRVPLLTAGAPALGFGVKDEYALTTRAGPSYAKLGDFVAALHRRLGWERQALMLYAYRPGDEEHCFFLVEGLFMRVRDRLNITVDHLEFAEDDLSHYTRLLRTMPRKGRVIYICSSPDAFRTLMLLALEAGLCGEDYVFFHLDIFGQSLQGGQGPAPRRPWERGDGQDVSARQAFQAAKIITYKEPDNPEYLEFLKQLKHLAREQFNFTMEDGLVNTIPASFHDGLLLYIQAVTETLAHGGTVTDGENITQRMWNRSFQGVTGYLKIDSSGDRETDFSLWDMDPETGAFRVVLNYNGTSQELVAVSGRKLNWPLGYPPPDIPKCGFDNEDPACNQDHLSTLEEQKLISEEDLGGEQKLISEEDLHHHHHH
Assay: SPR, mAb captured, 37 C
Description: Equilibrium dissociation constant (KD) for different NPR1 reagents binding to purified anti-NPR1 monoclonal antibodies (mAbs) were determined using a real-time surface plasmon resonance based Biacore 4000 biosensor. All binding studies were performed in 10 mM HEPES, 150 mM NaCl, 3 mM EDTA, and 0.05% v/v Surfactant Tween-20, pH 7.4 (HBS-ET) running buffer at 25° C. and 37° C. […]
Quick reference: kon of the listed items.
valueType: kon (M⁻¹ s⁻¹)

mAb22035 (antibody, V domains shown) VH: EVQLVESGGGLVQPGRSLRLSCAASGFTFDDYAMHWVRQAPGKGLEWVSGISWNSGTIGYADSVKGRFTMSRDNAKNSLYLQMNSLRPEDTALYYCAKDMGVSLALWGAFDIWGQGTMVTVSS VL: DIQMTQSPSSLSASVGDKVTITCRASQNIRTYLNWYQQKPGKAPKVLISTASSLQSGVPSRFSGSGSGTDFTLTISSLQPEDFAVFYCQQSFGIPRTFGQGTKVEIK
532000
mAb25479 (antibody, V domains shown) VH: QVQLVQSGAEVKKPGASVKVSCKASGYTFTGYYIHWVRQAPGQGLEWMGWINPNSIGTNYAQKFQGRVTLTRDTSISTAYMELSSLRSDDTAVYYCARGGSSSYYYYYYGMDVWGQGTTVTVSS VL: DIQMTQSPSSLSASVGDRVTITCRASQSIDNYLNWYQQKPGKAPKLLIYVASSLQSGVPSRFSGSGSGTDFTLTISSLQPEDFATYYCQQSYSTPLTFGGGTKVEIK
39600
